# system.tested: Interleukin-17 receptor A/ (Homo sapiens)
# Sequence (Q16552 whole entry): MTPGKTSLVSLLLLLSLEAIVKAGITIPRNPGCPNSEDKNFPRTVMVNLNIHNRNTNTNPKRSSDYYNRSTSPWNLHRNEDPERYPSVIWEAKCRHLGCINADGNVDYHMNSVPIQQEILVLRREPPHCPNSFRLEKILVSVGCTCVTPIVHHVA
# Sequence (Q96F46 whole entry, further chain): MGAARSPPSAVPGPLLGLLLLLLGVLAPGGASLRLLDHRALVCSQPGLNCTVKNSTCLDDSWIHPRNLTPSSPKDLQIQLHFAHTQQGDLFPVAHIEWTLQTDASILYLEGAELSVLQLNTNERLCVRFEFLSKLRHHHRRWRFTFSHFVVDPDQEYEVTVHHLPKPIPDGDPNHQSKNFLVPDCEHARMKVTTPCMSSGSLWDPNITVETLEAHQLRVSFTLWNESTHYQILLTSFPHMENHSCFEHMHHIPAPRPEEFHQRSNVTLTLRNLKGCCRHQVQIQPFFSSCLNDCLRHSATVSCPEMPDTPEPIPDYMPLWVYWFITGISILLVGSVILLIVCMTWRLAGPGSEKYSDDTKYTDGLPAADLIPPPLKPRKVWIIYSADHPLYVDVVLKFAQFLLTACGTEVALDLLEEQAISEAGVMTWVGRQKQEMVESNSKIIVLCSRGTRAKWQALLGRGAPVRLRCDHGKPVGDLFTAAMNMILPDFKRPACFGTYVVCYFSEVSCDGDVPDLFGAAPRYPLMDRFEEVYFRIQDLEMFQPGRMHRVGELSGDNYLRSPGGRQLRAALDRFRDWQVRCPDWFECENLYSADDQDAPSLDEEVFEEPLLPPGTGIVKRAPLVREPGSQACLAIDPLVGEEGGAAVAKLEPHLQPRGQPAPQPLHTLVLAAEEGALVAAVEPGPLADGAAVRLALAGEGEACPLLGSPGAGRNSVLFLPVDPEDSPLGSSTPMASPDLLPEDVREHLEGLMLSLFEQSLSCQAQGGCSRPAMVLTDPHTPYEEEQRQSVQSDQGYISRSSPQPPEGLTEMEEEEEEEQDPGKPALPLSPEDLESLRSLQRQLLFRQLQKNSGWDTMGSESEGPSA
readout.type: IC50 (µM)

(A) Cc1c(-c2ccc(NC(=O)[C@@H](NC(=O)c3ccnn3C)C3CCCCC3)cc2F)ccc[n+]1[O-]
(B) Cc1cc[n+]([O-])c(C)c1-c1ccc(NC(=O)[C@@H](NC(=O)c2conc2CN)C2CCCCC2)cc1
(C) Cc1nccc(Cl)c1-c1ccc(NC(=O)[C@@H](NC(=O)c2ccnn2C)C2CCCCC2)cc1F
(D) Cc1c(-c2ccc(NC(=O)[C@@H](NC(=O)c3ccnn3C)[C@H]3CCCC(F)(F)C3)cc2F)c(Cl)cc[n+]1[O-]
Ask: # rank above entries by IC50 (max first, min last) Ranked list of labels, please, in the requested order.
Reply: C, A, B, D
(C: 3.79 µM, A: 1.98 µM, B: 0.918 µM, D: 0.023 µM)
